Attribution: ChEMBL document CHEMBL1126865

Assay: Urinary recovery in male rats after iv administration of 20 mg/kg
Assay type: ADME, organism-based
Parameters: dose 20 mg/kg, route intravenous
Conditions: rat, urine
Readout Label: dose excreted (%)

{"Compound": "CO/N=C(\\C(=O)NC1CN2CC(S(C)(=O)=O)=C(C(=O)O)N2C1=O)c1csc(N)n1 (stereo unspecified)", "Numeric Value": 80.4}

###

Tested on: Staphylococcus epidermidis
Assay: In vitro antibacterial activity against Staphylococcus epidermidis 222
Type: functional
MIC for assorted compounds
Readout Label: MIC (µg/mL)

{"Sample Smiles": "CCS(=O)(=O)C1=C(C(=O)O)N2C(=O)[C@@H](NC(=O)/C(=N/OCCBr)c3csc(N)n3)CN2C1", "Readout Label": "MIC", "Unit Label": "µg/mL", "Value Modifier": "=", "Numeric Value": 8}
{"Sample Smiles": "N#CC1=C(C(=O)O)N2C(=O)[C@@H](NC(=O)Cc3csc(N)n3)CN2C1", "Readout Label": "MIC", "Unit Label": "µg/mL", "Value Modifier": "=", "Numeric Value": 64}
{"Sample Smiles": "Nc1nc(/C(=N\\OCCCl)C(=O)N[C@H]2CN3CC(S(=O)(=O)c4ccccc4)=C(C(=O)O)N3C2=O)cs1", "Readout Label": "MIC", "Unit Label": "µg/mL", "Value Modifier": "=", "Numeric Value": 32}
{"Sample Smiles": "CO/N=C(\\C(=O)N[C@H]1CN2CC(C#N)=C(C(=O)O)N2C1=O)c1csc(N)n1", "Readout Label": "MIC", "Unit Label": "µg/mL", "Value Modifier": "=", "Numeric Value": 64}
{"Sample Smiles": "N#CC1=C(C(=O)O)N2C(=O)[C@@H](NC(=O)/C(=N/OCc3ccccc3)c3csc(N)n3)CN2C1", "Readout Label": "MIC", "Unit Label": "µg/mL", "Value Modifier": "=", "Numeric Value": 8}
{"Sample Smiles": "N#CC1=C(C(=O)O)N2C(=O)[C@@H](NC(=O)CSc3cc(Cl)ccc3Cl)CN2C1", "Readout Label": "MIC", "Unit Label": "µg/mL", "Value Modifier": "=", "Numeric Value": 4}
{"Sample Smiles": "C#CCO/N=C(/C(=O)N[C@H]1CN2CC(S(C)(=O)=O)=C(C(=O)O)N2C1=O)c1csc(N)n1", "Readout Label": "MIC", "Unit Label": "µg/mL", "Value Modifier": "=", "Numeric Value": 32}
{"Sample Smiles": "N#CC1=C(C(=O)O)N2C(=O)[C@@H](NC(=O)/C(=N/OCCF)c3csc(N)n3)CN2C1", "Readout Label": "MIC", "Unit Label": "µg/mL", "Value Modifier": "=", "Numeric Value": 16}
{"Sample Smiles": "CCCS(=O)(=O)C1=C(C(=O)O)N2C(=O)[C@@H](NC(=O)/C(=N/OCCBr)c3csc(N)n3)CN2C1", "Readout Label": "MIC", "Unit Label": "µg/mL", "Value Modifier": "=", "Numeric Value": 8}
{"Sample Smiles": "C=CCO/N=C(/C(=O)N[C@H]1CN2CC(S(C)(=O)=O)=C(C(=O)O)N2C1=O)c1csc(N)n1", "Readout Label": "MIC", "Unit Label": "µg/mL", "Value Modifier": "=", "Numeric Value": 16}
{"Sample Smiles": "CCN1CCN(C(=O)N[C@@H](C(=O)N[C@H]2CN3CC(C#N)=C(C(=O)O)N3C2=O)c2ccccc2)C(=O)C1=O", "Readout Label": "MIC", "Unit Label": "µg/mL", "Value Modifier": "=", "Numeric Value": 32}
{"Sample Smiles": "CC(C)(O/N=C(/C(=O)N[C@H]1CN2CC(S(C)(=O)=O)=C(C(=O)O)N2C1=O)c1csc(N)n1)C(=O)O", "Readout Label": "MIC", "Unit Label": "µg/mL", "Value Modifier": ">", "Numeric Value": 128}
{"Sample Smiles": "CCCS(=O)(=O)C1=C(C(=O)O)N2C(=O)[C@@H](NC(=O)/C(=N/OCCCl)c3csc(N)n3)CN2C1", "Readout Label": "MIC", "Unit Label": "µg/mL", "Value Modifier": "=", "Numeric Value": 16}
{"Sample Smiles": "N#CC1=C(C(=O)O)N2C(=O)[C@@H](NC(=O)Cn3cnnn3)CN2C1", "Readout Label": "MIC", "Unit Label": "µg/mL", "Value Modifier": ">", "Numeric Value": 128}
{"Sample Smiles": "N#CC1=C(C(=O)O)N2C(=O)[C@@H](NC(=O)CSc3ccccc3)CN2C1", "Readout Label": "MIC", "Unit Label": "µg/mL", "Value Modifier": "=", "Numeric Value": 8}
{"Sample Smiles": "CC(C)(O/N=C(/C(=O)N[C@H]1CN2CC(C#N)=C(C(=O)O)N2C1=O)c1csc(N)n1)C(=O)O", "Readout Label": "MIC", "Unit Label": "µg/mL", "Value Modifier": ">", "Numeric Value": 128}
{"Sample Smiles": "CCCCS(=O)(=O)C1=C(C(=O)O)N2C(=O)[C@@H](NC(=O)/C(=N/OCCCl)c3csc(N)n3)CN2C1", "Readout Label": "MIC", "Unit Label": "µg/mL", "Value Modifier": "=", "Numeric Value": 16}
